Recorded values, source PubChem BioAssay (NCI).

Test system: HS 578T breast
method: NCI-60 one-dose screen, 48 h (100 = growth as untreated, 0 = no growth, -100 = all killed)
condition-summary: 10 µM unless noted
About 83,000 compounds went through this panel and 20% of them were active in at least one assay; those are over-represented in the sample as a whole. Calls of active or inactive are those of the source. Rule for the calls: active = growth percent below 10; inactive = the rest.
assay-endpoint: growth

Before answering, review these 10 worked examples.
# molecule, result
rows = [
    ("O=C(NCOC(O)C(Cl)(Cl)Cl)NCOC(O)C(Cl)(Cl)Cl (stereo not given)", "108% (inactive)"),
    ("CC/C=C/[C@@H]1C=C[C@@H]2CCC[C@H]2[C@@H]1CC[C@H](O)[C@H](C)N", "-44.3% (active)"),
    ("COC(=O)Nc1nc2ccc(C(=O)C3CC3)cc2[nH]1", "-17.7% (active)"),
    ("O=S(=O)(Nc1ccsc1-c1nc(-c2ccccc2)no1)c1cc(Cl)cc(Cl)c1", "94.1% (inactive)"),
    ("CC(=O)c1cc2c(o1)C(=O)c1ccccc1C2=O", "-23.7% (active)"),
    ("O=S(=O)(NCCNc1cc(-c2c(-c3cccc(O)c3)nc3sccn23)ccn1)c1ccc(Br)cc1", "59.1% (inactive)"),
    ("O=C(Nc1ccc(N2CCCCC2)c(Cl)c1)c1ccc(Br)o1", "72.8% (inactive)"),
    ("Clc1ccc2c(NCCCN3CCN(c4nc(N5CCOCC5)nc5ccccc45)CC3)ccnc2c1", "17.2% (inactive)"),
    ("N#Cc1c(NC(=O)c2ccc(Br)cc2)sc2c1CCCC2", "39.1% (inactive)"),
    ("O=C(NC1CCOCC1)c1ccc2c(c1)CN(c1ncc(Cc3cccc(-n4cccn4)c3)s1)CC2", "96% (inactive)"),
]

Pending molecule:
Task: For the molecule N=c1ccn2c(n1)OC1C(O)C(CO)OC12 (stereo not given) , what growth is on record?
Output: 85.2% (inactive)
